test system: RS4;11 (BCL-2 dependent acute lymphoblastic leukemia cell line); test: RS4;11 Cell Proliferation Assay; assay type: cell-based; conditions: Homo sapiens, RS4-11, RS4;11 cells, read-out: Cellular proliferation assay (IC50, nM) RS4
measure_name: IC50

As a guide, the following entries are already answered.
COc1cc(CN2CCN(C3CC4(CCN(c5ccc(C(=O)NS(=O)(=O)c6ccc(NC[C@H]7CC[C@](C)(O)CC7)c([N+](=O)[O-])c6)c(Oc6cnc7[nH]cc(F)c7c6)c5)CC4)C3)C(c3ccccc3C(C)C)C2)ccc1C1CC1 (stereo partly shown) = 0.46 nM
CC(C)c1ccccc1[C@@H]1CN(Cc2cnn(C)c2)CCN1C1CC2(CCN(c3ccc(C(=O)NS(=O)(=O)c4ccc(NC[C@H]5CC[C@](C)(O)CC5)c([N+](=O)[O-])c4)c(Oc4cnc5[nH]ccc5c4)c3)CC2)C1 (single isomer, unassigned) [Example 22b] = 7.6 nM
COc1ccc(CN2CCN(C3CC4(CCN(c5ccc(C(=O)NS(=O)(=O)c6ccc(NC[C@H]7CC[C@](C)(O)CC7)c([N+](=O)[O-])c6)c(Oc6cnc7[nH]cc(Cl)c7c6)c5)CC4)C3)[C@H](c3ccccc3C(C)C)C2)cc1 = 0.25 nM

The value of IC50 measured for the compound COc1ccc(CN2CCN(C3CC4(CCN(c5ccc(C(=O)NS(=O)(=O)c6ccc(NC[C@H]7CC[C@](C)(O)CC7)c([N+](=O)[O-])c6)c(Oc6cnc7[nH]ccc7c6)c5)CC4)C3)[C@@H](c3ccccc3C(C)C)C2)cc1OC [Example 81b] turned out to be 2.85 nM

* * *

tested on: RS4;11 (BCL-2 dependent acute lymphoblastic leukemia cell line); assay: RS4;11 Cell Proliferation Assay; type: cell-based; details: Homo sapiens, RS4-11, RS4;11 cells, read-out: Cellular proliferation assay (IC50, nM) RS4
measure_name: IC50 (nM)
Give just the number in nM; leave the unit off.

As a guide, the following entries are already answered.
COc1cc(CN2CCN(C3CC4(C3)CN(c3ccc(C(=O)NS(=O)(=O)c5ccc(NC[C@H]6CC[C@](C)(O)CC6)c([N+](=O)[O-])c5)c(Oc5cnc6[nH]ccc6c5)c3)C4)[C@H](c3ccccc3C(C)C)C2)cc(F)c1OC [Example 245] = 0.15
CC(C)c1ccccc1[C@@H]1CN(Cc2cccc3c2OCCO3)CCN1C1CC2(CCN(c3ccc(C(=O)NS(=O)(=O)c4ccc(NC[C@H]5CC[C@](C)(O)CC5)c([N+](=O)[O-])c4)c(Oc4cnc5[nH]ccc5c4)c3)CC2)C1 [Example 79b] = 0.16
CC(C)c1ccccc1[C@@H]1CN(Cc2cccc3c2OCCO3)CCN1C1CC2(C1)CN(c1ccc(C(=O)NS(=O)(=O)c3ccc(NC[C@H]4CC[C@](C)(O)CC4)c([N+](=O)[O-])c3)c(Oc3cnc4[nH]ccc4c3)c1)C2 [Example 149a] = 0.17
CC(C)c1ccccc1[C@@H]1CN(Cc2ccnc3c2OCC(C)(C)O3)CCN1C1CC2(C1)CN(c1ccc(C(=O)NS(=O)(=O)c3ccc(NC[C@H]4CC[C@](C)(O)CC4)c([N+](=O)[O-])c3)c(Oc3cnc4[nH]cc(F)c4c3)c1)C2 [Example 317] = 0.19
CC(C)c1ccccc1C1CN(Cc2cccc(OC3CC3)c2)CCN1C1CC2(CCN(c3ccc(C(=O)NS(=O)(=O)c4ccc(NC[C@H]5CC[C@](C)(O)CC5)c([N+](=O)[O-])c4)c(Oc4cnc5[nH]ccc5c4)c3)CC2)C1 (some centres unmarked) [Example 178] = 0.64
COc1cc(CN2CCN(C3CC4(CCN(c5ccc(C(=O)NS(=O)(=O)c6ccc(NC[C@H]7CC[C@](C)(O)CC7)c([N+](=O)[O-])c6)c(Oc6cnc7[nH]ccc7c6)c5)CC4)C3)[C@H](c3ccccc3C(C)C)C2)ccc1C(F)F [Example 288] = 0.19

The value of IC50 measured for the molecule CC(C)c1ccccc1C1CN(CC2CCCCC2)CCN1C1CC2(CCN(c3ccc(C(=O)NS(=O)(=O)c4ccc(NC[C@H]5CC[C@](C)(O)CC5)c([N+](=O)[O-])c4)c(Oc4cnc5[nH]ccc5c4)c3)CC2)C1 (some centres unmarked) [Example 16] turned out to be 0.81

The value of IC50 measured for the molecule CC(C)c1ccccc1[C@@H]1CN(Cc2ccc3c(c2)OCC3)CCN1C1CC2(C1)CN(c1ccc(C(=O)NS(=O)(=O)c3ccc(NC[C@H]4CC[C@](C)(O)CC4)c([N+](=O)[O-])c3)c(Oc3cnc4[nH]cc(F)c4c3)c1)C2 [Example 297] turned out to be 0.25

* * *

Reported IC50 by item:
biological target: Recombinant human Bcl-2 protein (Homo sapiens (Human), UniProt P10415); experiment: Bcl-2 TR-FRET Assay; format: binding; conditions: wild type Bcl-2; unit inferred; read-out: Bcl-2 WT
Sequence (P10415 whole entry): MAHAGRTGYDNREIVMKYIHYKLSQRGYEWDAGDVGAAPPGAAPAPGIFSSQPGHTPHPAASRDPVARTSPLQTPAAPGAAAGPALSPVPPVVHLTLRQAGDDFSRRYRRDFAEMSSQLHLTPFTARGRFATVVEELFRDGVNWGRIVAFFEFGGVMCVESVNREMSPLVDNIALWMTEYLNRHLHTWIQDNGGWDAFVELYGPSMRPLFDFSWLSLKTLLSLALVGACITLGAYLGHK
Give just the number in nM; leave the unit off.

CC(C)c1ccccc1C1CN(Cc2ccc(N(C)C)cc2)CCN1C1CC2(CCN(c3ccc(C(=O)NS(=O)(=O)c4ccc(NC[C@H]5CC[C@](C)(O)CC5)c([N+](=O)[O-])c4)c(Oc4cnc5[nH]ccc5c4)c3)CC2)C1 (some centres unmarked) = 0.12
COc1cc(CN2CCN(C3CC4(C3)CN(c3ccc(C(=O)NS(=O)(=O)c5ccc(NC[C@H]6CC[C@](C)(O)CC6)c([N+](=O)[O-])c5)c(Oc5cnc6[nH]cc(F)c6c5)c3)C4)[C@H](c3ccccc3C(C)C)C2)cnc1OC = 0.034
COc1ccc(CN2CCN(C3CC4(CCN(c5ccc(C(=O)NS(=O)(=O)c6ccc(NC[C@H]7COCCO7)c([N+](=O)[O-])c6)c(Oc6cnc7[nH]ccc7c6)c5)CC4)C3)[C@H](c3ccccc3C(C)C)C2)cc1 (single isomer, unassigned) = 0.038

Consider now this further compound.
The value of IC50 measured for the compound COc1ccccc1CN1CCN(C2CC3(CCN(c4ccc(C(=O)NS(=O)(=O)c5ccc(NC[C@H]6CC[C@](C)(O)CC6)c([N+](=O)[O-])c5)c(Oc5cnc6[nH]ccc6c5)c4)CC3)C2)C(c2ccccc2C(C)C)C1 (some centres unmarked) turned out to be 0.12

* * *

assay: Metabolic Stability Study, liver microsome incubation (human); type: in vitro ADME; conditions: human liver microsomes 0.5 mg/mL, 1 μM compound, NADPH; read-out: CLint (μL × min^−1 × mg^−1) Human
measure_name: microsomal CLint at 1 μM (µL/min/mg)
Give just the number in µL/min/mg; leave the unit off.

As a guide, the following entries are already answered.
CC(C)c1ccccc1[C@@H]1CN(Cc2cccc3c2OCCO3)CCN1C1CC2(CCN(c3ccc(C(=O)NS(=O)(=O)c4ccc(NC[C@H]5CC[C@](C)(O)CC5)c([N+](=O)[O-])c4)c(Oc4cnc5[nH]ccc5c4)c3)CC2)C1 [Example 79a] = 5.5
COc1ccc(CN2CCN(C3CC4(CCN(c5ccc(C(=O)NS(=O)(=O)c6ccc(NC[C@H]7COCCO7)c([N+](=O)[O-])c6)c(Oc6cnc7[nH]ccc7c6)c5)CC4)C3)[C@H](c3ccccc3C(C)C)C2)cc1 (single isomer, unassigned) = 0.8

Consider now this further compound.
The value of microsomal CLint at 1 μM measured for the compound "COc1cc(CN2CCN(C3CC4(CCN(c5ccc(C(=O)NS(=O)(=O)c6ccc(NC[C@H]7CC[C@](C)(O)CC7)c([N+](=O)[O-])c6)c(Oc6cnc7[nH]cc(F)c7c6)c5)CC4)C3)[C@H](c3ccccc3C(C)C)C2)cc2ccoc12" turned out to be 1.6

* * *

Reported Vd by item:
experiment: Mouse PK Study; format: in vivo; settings: plasma; Iv dosing (1 mg/kg), male CD-1 mouse
Give just the number in L/kg; leave the unit off.

As a guide, the following entries are already answered.
COc1cc(CN2CCN(C3CC4(C3)CN(c3ccc(C(=O)NS(=O)(=O)c5ccc(NC[C@H]6CC[C@](C)(O)CC6)c([N+](=O)[O-])c5)c(Oc5cnc6[nH]cc(F)c6c5)c3)C4)[C@H](c3ccccc3C(C)C)C2)cc2cc(C)oc12 [Example 338] = 0.37
COc1ccc(CN2CCN(C3CC4(CCN(c5ccc(C(=O)NS(=O)(=O)c6ccc(NC[C@H]7CC[C@](C)(O)CC7)c([N+](=O)[O-])c6)c(Oc6cnc7[nH]ccc7c6)c5)CC4)C3)[C@H](c3ccccc3C(C)C)C2)cc1 [Example 19a] = 0.48
COc1cc(CN2CCN(C3CC4(C3)CN(c3ccc(C(=O)NS(=O)(=O)c5ccc(NC[C@H]6CC[C@](C)(O)CC6)c([N+](=O)[O-])c5)c(Oc5cnc6[nH]cc(F)c6c5)c3)C4)[C@H](c3ccccc3C(C)C)C2)ccc1C1CC1 [Example 232] = 1.2
COc1cc(CN2CCN(C3CC4(C3)CN(c3ccc(C(=O)NS(=O)(=O)c5ccc(NC[C@H]6CC[C@](C)(O)CC6)c([N+](=O)[O-])c5)c(Oc5cnc6[nH]ccc6c5)c3)C4)[C@H](c3ccccc3C(C)C)C2)ccc1C1CC1 [Example 233] = 0.8

The value of Vd measured for the compound CC(C)c1ccccc1[C@@H]1CN(Cc2ccc(F)c(F)c2)CCN1C1CC2(CCN(c3ccc(C(=O)NS(=O)(=O)c4ccc(NC[C@H]5CC[C@](C)(O)CC5)c([N+](=O)[O-])c4)c(Oc4cnc5[nH]ccc5c4)c3)CC2)C1 (single isomer, unassigned) [Example 52a] turned out to be 0.62

The value of Vd measured for the compound COc1ccc(CN2CCN(C3CC4(CCN(c5ccc(C(=O)NS(=O)(=O)c6ccc(NCC7(F)CCOCC7)c([N+](=O)[O-])c6)c(Oc6cnc7[nH]ccc7c6)c5)CC4)C3)[C@H](c3ccccc3C(C)C)C2)cc1 (single isomer, unassigned) [Example 32] turned out to be 0.48
